Recorded log10(IC50), one value per entry.
# target: HPK1 (Homo sapiens, UniProt Q92918)
# method-description: SLP76 phosphorylation assay (intracellular HPK1 inhibitory activity, p-SLP76 S376 ELISA in Jurkat cells)
# particulars: p-SLP76 IC50, Jurkat, Clone E6-1 cells; 1 h compound pre-incubation; anti-CD3 beads stimulation 20 min; Phospho-SLP-76 (Ser376) ELISA
# Sequence (Q92918 whole entry): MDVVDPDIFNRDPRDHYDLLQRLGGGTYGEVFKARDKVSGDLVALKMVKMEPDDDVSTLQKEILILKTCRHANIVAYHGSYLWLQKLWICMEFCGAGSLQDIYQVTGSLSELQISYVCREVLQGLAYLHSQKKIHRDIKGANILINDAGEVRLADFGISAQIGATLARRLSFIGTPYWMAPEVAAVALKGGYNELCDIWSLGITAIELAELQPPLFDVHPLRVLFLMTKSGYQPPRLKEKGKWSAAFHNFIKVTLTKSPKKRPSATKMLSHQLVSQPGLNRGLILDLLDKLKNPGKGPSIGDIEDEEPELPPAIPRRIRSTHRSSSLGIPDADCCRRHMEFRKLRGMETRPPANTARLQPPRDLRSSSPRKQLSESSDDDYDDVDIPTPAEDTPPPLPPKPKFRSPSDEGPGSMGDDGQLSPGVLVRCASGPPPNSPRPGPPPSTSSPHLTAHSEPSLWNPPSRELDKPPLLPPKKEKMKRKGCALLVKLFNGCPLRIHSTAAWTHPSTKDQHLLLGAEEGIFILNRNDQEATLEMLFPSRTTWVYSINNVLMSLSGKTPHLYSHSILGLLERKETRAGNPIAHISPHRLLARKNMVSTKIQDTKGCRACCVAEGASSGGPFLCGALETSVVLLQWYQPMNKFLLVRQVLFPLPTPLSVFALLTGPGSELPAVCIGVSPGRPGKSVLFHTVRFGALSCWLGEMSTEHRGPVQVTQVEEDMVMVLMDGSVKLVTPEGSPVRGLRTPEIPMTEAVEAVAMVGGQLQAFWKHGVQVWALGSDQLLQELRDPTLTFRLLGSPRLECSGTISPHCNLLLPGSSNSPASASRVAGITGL
Please interpret these as log10 of IC50 where IC50 is in nM.

Past entries and their recorded results:
compound	target	meas-value
Cc1c[nH]c2ncc(-c3cc4c(c([C@@H]5COCCN5)c3)CN(C(=O)[C@](C)(O)C(F)(F)F)CC4)nc12 [Compound Z568]	HPK1 (Homo sapiens, UniProt Q92918)	1.82
Cc1c[nH]c2ncc(-c3cc4c(c([C@@H]5COCCN5)c3)CN(C(=O)N3CC5(CCOCC5)C3)CC4)cc12 [Compound Z563]	HPK1 (Homo sapiens, UniProt Q92918)	2.24
O=C(N1CCc2cc(-c3cnc4[nH]cc(Cl)c4c3)cc([C@@H]3COCCN3)c2C1)N1CC2CCC(C1)O2 [Compound Z447]	HPK1 (Homo sapiens, UniProt Q92918)	1.65

IN: Write down the reported log10(IC50) of Cc1c[nH]c2ncc(-c3cc4c(c([C@@H]5COCCN5)c3)CN(C(=O)N3CC5CCC(C3)C5O)CC4)cc12 (stereo partly shown) [Compound Z551] , test system: HPK1 (Homo sapiens, UniProt Q92918).
OUT: 2.70

----------
# target: HPK1 (Homo sapiens, UniProt Q92918)
# method-description: SLP76 phosphorylation assay (intracellular HPK1 inhibitory activity, p-SLP76 S376 ELISA in Jurkat cells)
# particulars: p-SLP76 IC50, Jurkat, Clone E6-1 cells; 1 h compound pre-incubation; anti-CD3 beads stimulation 20 min; Phospho-SLP-76 (Ser376) ELISA
Recorded IC50, one value per entry.

molecule	IC50
Cc1c[nH]c2ncc(-c3cc4c(c([C@@H]5COCCN5)c3)CN(C(=O)N3CC[C@H](F)C3)CC4)nc12	67.4 nM
Cc1c[nH]c2ncc(-c3cc4c(c([C@@H]5COCCN5)c3)CN(C(=O)N3C5CCC3CN(C)C5)CC4)cc12	180 nM
Cc1c[nH]c2ncc(-c3cc4c(c([C@@H]5COCCN5)c3)CN(C(=O)[C@H]3CCOC3)CC4)nc12	247 nM
Cc1c[nH]c2ncc(-c3cc4c(c([C@@H]5COCCN5)c3)CN(C(=O)N3CCOCC3(C)C)CC4)cc12	147 nM
Cc1c[nH]c2ncc(-c3cc4c(c([C@@H]5COCCN5)c3)CN(C(=O)N3CC5CCC3CO5)CC4)cc12 (some centres unmarked)	60.9 nM

IN: Can you share its IC50? I mean this molecule: N#Cc1c[nH]c2ncc(-c3cc4c(c([C@@H]5COCCN5)c3)CN(C(=O)N3C5CCC3COC5)CC4)nc12
OUT: 2670 nM

IN: Can you share its IC50? I mean this molecule: Cc1c[nH]c2ncc(-c3cc4c(c([C@@H]5COCCN5)c3)CN(C(=O)N3CCOC[C@@H]3C)CC4)nc12
OUT: 83.9 nM

IN: Can you share its IC50? I mean this molecule: Cc1c[nH]c2ncc(-c3cc4c(c([C@@H]5COCCN5)c3)CN(C(=O)N3CCO[C@@H](C)C3)CC4)cc12
OUT: 238 nM

IN: Can you share its IC50? I mean this molecule: C[C@@H]1COCCN1C(=O)N1CCc2cc(-c3cnc4[nH]cc(Cl)c4c3)cc([C@@H]3COCCN3)c2C1
OUT: 143 nM

IN: Can you share its IC50? I mean this molecule: Cc1c[nH]c2ncc(-c3cc4c(c([C@@H]5COCCN5)c3)CN(C(=O)C3(C)COC3)CC4)cc12
OUT: 263 nM

----------
# target: HPK1 (Homo sapiens, UniProt Q92918)
# method-description: SLP76 phosphorylation assay (intracellular HPK1 inhibitory activity, p-SLP76 S376 ELISA in Jurkat cells)
# particulars: read-out: p-SLP76 IC50; Jurkat, Clone E6-1 cells; 1 h compound pre-incubation; anti-CD3 beads stimulation 20 min; Phospho-SLP-76 (Ser376) ELISA
measurement-label: pIC50
Remember, pIC50 is on a log scale: it is -log10 of the molar concentration.

IN: Can you share its pIC50? I mean this compound: Cc1c[nH]c2ncc(-c3cc4c(c([C@@H]5CCCN5)c3)CN(C(=O)CC3CC3)CC4)cc12
OUT: 6.33

----------
# target: HPK1 (Homo sapiens, UniProt Q92918)
# method-description: SLP76 phosphorylation assay (intracellular HPK1 inhibitory activity, p-SLP76 S376 ELISA in Jurkat cells)
# particulars: p-SLP76 IC50, Jurkat, Clone E6-1 cells; 1 h compound pre-incubation; anti-CD3 beads stimulation 20 min; Phospho-SLP-76 (Ser376) ELISA
measurement-label: IC50 (nM)
Lab book: enter the figure in nM, no units written.

compound	meas-value
CC(C)(O)C(=O)N1CCc2cc(-c3cnc4[nH]cc(C#N)c4c3)cc([C@@H]3COCCN3)c2C1 [Compound Z506]	685
COC1(C(=O)N2CCc3cc(-c4cnc5[nH]cc(C)c5c4)cc([C@@H]4COCCN4)c3C2)CC1 [Compound Z373]	159
O=C([C@H]1CCOC1)N1CCc2cc(-c3cnc4[nH]cc(Cl)c4c3)cc([C@@H]3COCCN3)c2C1 [Compound Z631]	240
Cc1c[nH]c2ncc(-c3cc4c(c([C@@H]5COCCN5)c3)CN(C(=O)N3CCC5(CCOCC5)C3)CC4)cc12 [Compound Z565]	245

IN: Can you share its IC50? I mean this compound: Cc1c[nH]c2ncc(-c3cc4c(c([C@@H]5COCCN5)c3)CN(C3CCOCC3)CC4)cc12 [Compound Z454]
OUT: 655

IN: Can you share its IC50? I mean this compound: Cc1c[nH]c2ncc(-c3cc4c(c([C@@H]5COCCN5)c3)CN(C(=O)N3CCC(F)(F)CC3)CC4)nc12 [Compound Z624]
OUT: 76

IN: Can you share its IC50? I mean this compound: CCc1c[nH]c2ncc(-c3cc4c(c([C@@H]5COCCN5)c3)CN(C(=O)N3CCOCC3)CC4)cc12 [Compound Z448]
OUT: 120

----------
# target: HPK1 (Homo sapiens, UniProt Q92918)
# method-description: SLP76 phosphorylation assay (intracellular HPK1 inhibitory activity, p-SLP76 S376 ELISA in Jurkat cells)
# particulars: p-SLP76 IC50, Jurkat, Clone E6-1 cells; 1 h compound pre-incubation; anti-CD3 beads stimulation 20 min; Phospho-SLP-76 (Ser376) ELISA
Cut-off 100 nM on IC50: below means y, at or above means n.

Please review the following examples before continuing.
compound	class-name
O=C(N1CCc2cc(-c3cnc4[nH]cc(Cl)c4n3)cc([C@@H]3COCCN3)c2C1)N1CC2CCC1CO2 (stereo partly shown) [Compound Z550]	n
CCc1c(Cl)[nH]c2ncc(-c3cc4c(c([C@@H]5CCCN5)c3)CN(C(=O)COC)CC4)cc12 [Compound Z411]	n

IN: Consider the compound O=C(N1CCc2cc(-c3cnc4[nH]cc(C(F)(F)F)c4n3)cc([C@@H]3COCCN3)c2C1)N1C2CCC1COC2 [Compound Z584] . Is its IC50 strictly less than 100 nM?
OUT: n

----------
Recorded pIC50, one value per entry.
# target: HPK1 (Homo sapiens, UniProt Q92918)
# method-description: SLP76 phosphorylation assay (intracellular HPK1 inhibitory activity, p-SLP76 S376 ELISA in Jurkat cells)
# particulars: p-SLP76 IC50, Jurkat, Clone E6-1 cells; 1 h compound pre-incubation; anti-CD3 beads stimulation 20 min; Phospho-SLP-76 (Ser376) ELISA
Remember, pIC50 is on a log scale: it is -log10 of the molar concentration.

Past entries and their recorded results:
compound	pIC50
Cc1c[nH]c2ncc(-c3cc4c(c([C@@H]5COCCN5)c3)CN(C(=O)N3CC5CCC(C3)O5)CC4)nc12	7.55
Cc1c[nH]c2ncc(-c3cc4c(c([C@@H]5CCCN5)c3)CN(C(=O)C(C)O)C4)cc12 (mixture of isomers)	6.32
Cc1c[nH]c2ncc(-c3cc4c(c([C@@H]5COCCN5)c3)CN(C(=O)N3CCN(C)CC3)CC4)cc12	6.51

Now look at this entry.
IN: Can you share its pIC50? I mean this compound: Cc1ncc(C(=O)N2CCc3cc(-c4cnc5[nH]cc(Cl)c5c4)cc([C@@H]4COCCN4)c3C2)cn1
OUT: 6.41

----------
# target: HPK1 (Homo sapiens, UniProt Q92918)
# method-description: HPK1 kinase activity assay (ADP-Glo)
# particulars: HPK1 Kinase activity IC50, ADP-Glo; 1 nM HPK1, 10 μM ATP, 0.1 μg/μL MBP
# Sequence (Q92918 1-346): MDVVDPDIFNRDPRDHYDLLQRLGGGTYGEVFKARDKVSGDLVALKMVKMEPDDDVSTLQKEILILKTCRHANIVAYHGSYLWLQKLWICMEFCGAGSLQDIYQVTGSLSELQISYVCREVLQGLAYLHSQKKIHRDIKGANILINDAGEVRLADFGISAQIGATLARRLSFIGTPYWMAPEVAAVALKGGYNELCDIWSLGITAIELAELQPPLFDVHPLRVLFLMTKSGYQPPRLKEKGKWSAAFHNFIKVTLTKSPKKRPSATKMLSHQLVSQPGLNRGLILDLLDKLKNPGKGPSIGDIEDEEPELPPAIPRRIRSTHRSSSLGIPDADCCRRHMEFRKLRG
Recorded pIC50, one value per entry.
Remember, pIC50 is on a log scale: it is -log10 of the molar concentration.

molecule-smiles	target	measurement-label	meas-value
CCc1c[nH]c2ncc(-c3cc4c(c([C@@H]5COCCN5)c3)CN(C(=O)N3CCOCC3)CC4)nc12	HPK1 (Homo sapiens, UniProt Q92918)	pIC50	9.80
CC(C)(O)C(=O)N1CCc2cc(-c3cnc4[nH]cc(C5CC5)c4c3)cc([C@@H]3COCCN3)c2C1	HPK1 (Homo sapiens, UniProt Q92918)	pIC50	9.77
Cc1c[nH]c2ncc(-c3cc4c(c([C@@H]5COCCN5)c3)CN(C(=O)C3(O)CCOCC3)CC4)cc12	HPK1 (Homo sapiens, UniProt Q92918)	pIC50	9.66

Now look at this entry.
IN: Can you share its pIC50? I mean this molecule: O=C(N1CCc2cc(-c3cnc4[nH]cc(Cl)c4c3)cc([C@@H]3COCCN3)c2C1)N1C2CCC1COC2
OUT: 9.68
